# Test system: HL-60(TB) leukemia
# Measurement Protocol: NCI-60 one-dose screen, 48 h
# Condition Label: 10 µM unless noted
This is part of a sample that, as a whole, favours compounds with a hit. Of some 83,000 tested, about 20% had one in any assay. Active and inactive are the calls of the source. The calls were made as follows: active = growth percent below 10; inactive = the rest.
Outcomes: active, inactive

CCCCCCCCCCCCCCCCCC[S+](C)CC (stereo not drawn) :: inactive
COc1ccccc1NC(=O)OCC12COCN1COC2 :: inactive
CC1(C)C(N)=Nc2cc(OCCCCN3Cc4ccccc4C3)c(OCC3CC3)cc21 :: inactive
Oc1c(CN2CCOCC2)cc(COCc2ccccc2)c2cccnc12 :: active
CCN(CC)CCN1C(=O)c2c(c(C)c3c(oc4ccc(O)cc43)c2C)C1=O :: active
N=C(N)c1ccc(-c2ccc(-c3ccc4ccccc4c3)s2)s1 :: active
CCOC(=O)C1=C(C)n2nc(CC#N)c(C#N)c2NC1c1ccc(CC)cc1 (stereo not drawn) :: inactive
COc1ccc(NC(=O)COc2ccccc2)c(C(N)=O)c1 :: active
COc1ccc(C(=O)COc2cccc(/C=C3\CSc4ccc(Cl)cc4C3=O)c2)cc1 :: inactive
CN1CCN(c2nc(-c3csc(-c4cccs4)n3)cc3ccccc23)CC1 :: inactive
CCCSc1nc(N)nc2nc[nH]c12 :: inactive
c1cnc2[nH]cc(-c3nc(-c4ccsc4)cs3)c2c1 :: inactive
COc1cc(Nc2ccnc(NCCCNc3ccnc4cc(Cl)ccc34)n2)cc(OC)c1 :: active
O=C(O)CSCC(=O)Nc1cc(C(F)(F)F)ccc1Cl :: inactive
CCN(CC)CCCNCCCNc1cc(OC)cc2cccnc12 :: active
CCCNC(=O)Oc1ccc(/C(=C(/C)Cc2ccc(OC)cc2)c2ccc(OCCN3CCCC3)cc2)cc1 :: inactive
O=c1oc2ccccc2c(Cl)c1Cl :: inactive
NS(=O)(=O)c1ccccc1NC(=O)Nc1nc2ccccc2s1 :: inactive
COc1ccc(OC)c(-c2c(C#N)c(-c3ccc(Cl)cc3)nc3c2c(-c2ccccc2)nn3-c2ccccc2)c1 :: inactive
O=C(CBr)OCc1ccc([N+](=O)[O-])o1 :: inactive
NC(=S)N/N=C\c1nccc2c(N)cccc12 :: active
O=c1c2c3c(sc2n2c(-c4cc(-c5ccccc5)nn4-c4ccccc4)nnc2n1Cc1ccccc1)CCCC3 :: inactive
Cc1ccc2[nH]c(=S)[nH]c(=O)c2c1 :: inactive
c1ccc(/C(=N\Nc2ccc3ccccc3n2)c2ccccn2)cc1 :: active
O=C(/C=C/c1cc2ccccc2[nH]c1=O)c1ccc(Cl)cc1 :: inactive
Cc1ccc(C(=O)NC2c3ccccc3Oc3ccccc32)cc1 :: active
CCCC/C=N/NC(=S)NCc1ccccc1 :: inactive
COc1cc(C2CC(=O)Nc3c2c(C)nn3-c2nc3ccccc3[nH]2)c(OC)c(OC)c1OC (stereo not drawn) :: inactive
COc1ccc(-c2nc3sccn3c2/C=C/C(=O)c2cc(F)cc(F)c2)cc1 :: inactive
Fc1ccc(-c2cc(C(Cl)Cl)no2)cc1 :: inactive
Fc1ccccc1Nc1n[nH]c(=S)s1 :: inactive
Cc1cccc(Oc2ccc(Nc3ncnc4ccc(NC(=O)CN5CCN(C)CC5)cc34)cc2Cl)c1 :: active
Cc1nn(-c2ccc(F)cc2)c2ncnc(Oc3ccc(NC(=O)Nc4ccc(Cl)c(C(F)(F)F)c4)cc3)c12 :: inactive
COc1ccc(CCN2COc3c([C@@H](C)CCC=C(C)C)ccc(C)c3C2)cc1OC :: inactive
CCNc1ncnc2c1cnn2C1CCCO1 (stereo not drawn) :: inactive
O=[N+]([O-])c1ccc(-c2cc(-c3ccc(Nc4nc(Nc5ccc(Cl)cc5)nc(Nc5ccc(Cl)cc5)n4)cc3)no2)cc1 :: active
COC(=O)c1cc(-c2ccc(S(C)(=O)=O)cc2)[nH]c1N/N=C/c1c(Cl)cccc1Cl :: active
Nc1ccc(Oc2ccccc2)c(Cl)c1 :: inactive
Cc1cccc(C[C@H](NC(=O)Nc2ccc(C)cc2F)C(=O)N[C@@H]2C(=O)N3C[C@H](O)C[C@H]3C(=O)N3CCN(C)C[C@H]3C(=O)N[C@@H](C)C(=O)N3C[C@H](C)C[C@H]3C(=O)O[C@H]2C)c1 :: inactive
COc1cccc(-c2nc3occn3c2-c2ccnc(NCCNS(=O)(=O)c3cccc4ccccc34)n2)c1 :: inactive
O=C1NC(=C(Cl)Cl)/C(=N/S(=O)(=O)NCCc2c[nH]c3ccccc23)N1 :: inactive
CCN1CCN(Cc2ccc(NC(=O)c3nc4ccc5[nH]ncc5c4c4c3CCCC4)cc2C(F)(F)F)CC1 :: active
O=C(Cc1ccccc1)Nc1cccc(N=Cc2ccccc2O)c1 :: inactive

====

# Test system: HL-60(TB) leukemia
# Measurement Protocol: NCI-60 one-dose screen, 48 h (100 = growth as untreated, 0 = no growth, -100 = all killed)
# Condition Label: 10 µM unless noted
About 83,000 compounds went through this panel and 20% of them were active in at least one assay; those are over-represented in the sample as a whole. Calls of active or inactive are those of the source. Rule for the calls: active = growth percent below 10; inactive = the rest.
Readout Kind: growth

COc1ccccc1S(=O)(=O)Nc1ccc2c3c(cc(-c4ccoc4)nc13)C(=O)N2C :: 8.91% (active)
CS(=O)(=O)Nc1cccc(-c2ccc3ncnc(Nc4cncc(Cl)c4)c3c2)c1 :: 35.5% (inactive)
Cc1ccc(S(=O)(=O)NC(CCC(=O)Nc2ccc(Cl)cc2)C(=O)Nc2ccc(Cl)cc2)cc1 (stereo not given) :: 24.1% (inactive)
COc1cc(/C=N/Nc2nc(-c3ccc(F)cc3)c(C#N)c(N3CCOCC3)n2)ccc1O :: 72.5% (inactive)
COc1ccc(CNc2c3ccccc3nc3ccccc23)cc1 :: 43% (inactive)
CCN(CC)c1ccc(C(=O)c2ccccc2)cc1 :: 87.4% (inactive)
N#Cc1cc2[nH]c3ccc(OC(F)(F)F)cc3c2oc1=O :: 99.8% (inactive)
CCOC(=O)c1sc(-c2ccc(OS(=O)(=O)c3ccc(C(C)(C)C)cc3)c(C=O)c2)nc1C :: 21.3% (inactive)
Cc1cccc2c1O/C(=C\c1ncc([N+](=O)[O-])n1C)C2=O :: -9.87% (active)
COC(=O)[C@]12CC[C@@H](C)[C@H](C)[C@@H]1C1=CC[C@@H]3[C@@]4(C)C[C@@H](O)[C@H](O)[C@@](C)(CO)C4=CC[C@@]3(C)[C@]1(C)CC2 :: -28% (active)
O=C(O)CN1C(=O)C=CC1=O :: 96.9% (inactive)
NC(CCC(=O)NC(CS)C(=O)NCC(=O)O)C(=O)O (stereo not given) :: 73.1% (inactive)
O=C(/C=C/c1ccc([N+](=O)[O-])cc1)c1cccc(Nc2nc(Nc3ccccc3)nc(Nc3ccccc3)n2)c1 :: 85.1% (inactive)
COc1ccc(C2CC(c3ccccc3)=NN2c2nc(C)c(C(C)=O)s2)cc1 (stereo not given) :: 101% (inactive)
COc1ccc(C(=O)c2cc3c(N)c(C(=O)Nc4cccc5ccccc45)sc3nc2C)cc1 :: -49% (active)
C=C1C(=O)O[C@H]2[C@H]1CC/C(CNC(=O)/C=C/c1cc(OC)c(OC)c(OC)c1)=C\CC[C@@]1(C)O[C@@H]21 :: -33.3% (active)
O=[N+]([O-])c1ccc(Oc2cc(Cl)c(Cl)cc2Cl)c(C(F)(F)F)c1 :: 104% (inactive)
COc1cc(CCN=Cc2ccccc2O)c([N+](=O)[O-])cc1OC :: 101% (inactive)
Cc1noc(C)c1-c1ccc2nc(NC(=O)[C@H]3CCN(C#N)C3)cn2c1 :: 95.9% (inactive)
COc1ccc(/C=C/c2n[nH]c3ccc(N4CCOC4=O)cc23)cc1 :: -27.5% (active)

====

# Tested on: SNB-75 CNS
# Measurement Protocol: NCI-60 one-dose screen, 48 h (100 = growth as untreated, 0 = no growth, -100 = all killed)
# Condition Label: 10 µM unless noted
About 83,000 compounds went through this panel and 20% of them were active in at least one assay; those are over-represented in the sample as a whole. The source made the active and inactive calls. The calls were made as follows: active = growth percent below 10; inactive = the rest.
Recorded measurements of growth, one per entry
Readout Kind: growth

Clc1ccc(SSC(Cl)(Cl)Cl)cc1 :: 106% (inactive)
CC(/C=N/N=C(N)N)=N\N=C(N)N :: 63.7% (inactive)
CCC(C)(C)O :: 92.1% (inactive)
O=C(O)C1[O][Sb][O]C1C(=O)O (stereo unspecified) :: 94.8% (inactive)
O=C(NCCNC(=O)c1ccc([As](O)O)cc1)c1ccc([As](O)O)cc1 :: 87.5% (inactive)
[Br][Pb]([c]1ccccc1)([c]1ccccc1)[c]1ccccc1 :: -100% (active)
Cc1ccc(C[As+](c2ccccc2)(c2ccccc2)c2ccccc2)cc1 :: 15.1% (inactive)
COc1cc(C2CC(=O)Nc3nc(N)[se]c32)cc(OC)c1OC (stereo unspecified) :: 98.9% (inactive)
CCC1CN1P(=O)(OCCOC)N1CC1CC (stereo unspecified) :: 92.9% (inactive)
CCOc1cc(C=C(C#N)C#N)cc(Br)c1O :: 83.5% (inactive)
CC(C)CCC[C@@H](C)[C@H]1CC[C@H]2[C@@H]3CC=C4C[C@@H](OC(=O)Cc5ccc(N(CCCl)CCCl)cc5)CC[C@]4(C)[C@H]3CC[C@]12C :: 103% (inactive)
